The measurements presented in this section are drawn from the supplement of paper PMC6125532.

# System: Mycobacterium tuberculosis CRY-5; CRY-10
property.label: MIC (REMA) (µg/mL)
Field: numeric (µg/mL). Do not append units.

Reference set (5 entries):
structure_string=C[C@]1(COc2ccc(N3CCC(Oc4ccc(OC(F)(F)F)cc4)CC3)cc2)Cn2cc([N+](=O)[O-])nc2O1 target_of_assay="Mycobacterium tuberculosis CRY-5; CRY-10" value_reported=0.125
structure_string=CO[C@H]1/C=C/O[C@@]2(C)Oc3c(C)c(O)c4c(c3C2=O)C2=NC3(CCN(CC(C)C)CC3)NC2=C(NC(=O)/C(C)=C\C=C\[C@H](C)[C@H](O)[C@@H](C)[C@@H](O)[C@@H](C)[C@H](OC(C)=O)[C@@H]1C)C4=O target_of_assay="Mycobacterium tuberculosis CRY-5; CRY-10" value_reported=1
structure_string=COc1c(N2C[C@@H]3CCCN[C@@H]3C2)c(F)cc2c(=O)c(C(=O)O)cn(C3CC3)c12 target_of_assay="Mycobacterium tuberculosis CRY-5; CRY-10" value_reported=8
structure_string=COc1nc2ccc(Br)cc2cc1[C@@H](c1ccccc1)[C@@](O)(CCN(C)C)c1cccc2ccccc12 target_of_assay="Mycobacterium tuberculosis CRY-5; CRY-10" value_reported=0.015
structure_string=CC(=O)NC[C@H]1CN(c2ccc(N3CCOCC3)c(F)c2)C(=O)O1 target_of_assay="Mycobacterium tuberculosis CRY-5; CRY-10" value_reported=0.25

Field MIC (REMA) (Mycobacterium tuberculosis CRY-5; CRY-10), entry CC(C)/N=c1\cc2n(-c3ccc(Cl)cc3)c3ccccc3nc-2cc1Nc1ccc(Cl)cc1 : 0.06
